# pIC50 per entry
target: human Nav1.7 channels stably expressed in HEK 293 cells (Homo sapiens, UniProt Q15858); construct: expressed in transfected cells; host or cells: HEK 293; assay: PatchXpress 7000 automated patch-clamp, inactivated state block; type: cell-based; settings: PatchXpress technique; read-out: Nav 1.7 potency
Sequence (Q15858 whole entry): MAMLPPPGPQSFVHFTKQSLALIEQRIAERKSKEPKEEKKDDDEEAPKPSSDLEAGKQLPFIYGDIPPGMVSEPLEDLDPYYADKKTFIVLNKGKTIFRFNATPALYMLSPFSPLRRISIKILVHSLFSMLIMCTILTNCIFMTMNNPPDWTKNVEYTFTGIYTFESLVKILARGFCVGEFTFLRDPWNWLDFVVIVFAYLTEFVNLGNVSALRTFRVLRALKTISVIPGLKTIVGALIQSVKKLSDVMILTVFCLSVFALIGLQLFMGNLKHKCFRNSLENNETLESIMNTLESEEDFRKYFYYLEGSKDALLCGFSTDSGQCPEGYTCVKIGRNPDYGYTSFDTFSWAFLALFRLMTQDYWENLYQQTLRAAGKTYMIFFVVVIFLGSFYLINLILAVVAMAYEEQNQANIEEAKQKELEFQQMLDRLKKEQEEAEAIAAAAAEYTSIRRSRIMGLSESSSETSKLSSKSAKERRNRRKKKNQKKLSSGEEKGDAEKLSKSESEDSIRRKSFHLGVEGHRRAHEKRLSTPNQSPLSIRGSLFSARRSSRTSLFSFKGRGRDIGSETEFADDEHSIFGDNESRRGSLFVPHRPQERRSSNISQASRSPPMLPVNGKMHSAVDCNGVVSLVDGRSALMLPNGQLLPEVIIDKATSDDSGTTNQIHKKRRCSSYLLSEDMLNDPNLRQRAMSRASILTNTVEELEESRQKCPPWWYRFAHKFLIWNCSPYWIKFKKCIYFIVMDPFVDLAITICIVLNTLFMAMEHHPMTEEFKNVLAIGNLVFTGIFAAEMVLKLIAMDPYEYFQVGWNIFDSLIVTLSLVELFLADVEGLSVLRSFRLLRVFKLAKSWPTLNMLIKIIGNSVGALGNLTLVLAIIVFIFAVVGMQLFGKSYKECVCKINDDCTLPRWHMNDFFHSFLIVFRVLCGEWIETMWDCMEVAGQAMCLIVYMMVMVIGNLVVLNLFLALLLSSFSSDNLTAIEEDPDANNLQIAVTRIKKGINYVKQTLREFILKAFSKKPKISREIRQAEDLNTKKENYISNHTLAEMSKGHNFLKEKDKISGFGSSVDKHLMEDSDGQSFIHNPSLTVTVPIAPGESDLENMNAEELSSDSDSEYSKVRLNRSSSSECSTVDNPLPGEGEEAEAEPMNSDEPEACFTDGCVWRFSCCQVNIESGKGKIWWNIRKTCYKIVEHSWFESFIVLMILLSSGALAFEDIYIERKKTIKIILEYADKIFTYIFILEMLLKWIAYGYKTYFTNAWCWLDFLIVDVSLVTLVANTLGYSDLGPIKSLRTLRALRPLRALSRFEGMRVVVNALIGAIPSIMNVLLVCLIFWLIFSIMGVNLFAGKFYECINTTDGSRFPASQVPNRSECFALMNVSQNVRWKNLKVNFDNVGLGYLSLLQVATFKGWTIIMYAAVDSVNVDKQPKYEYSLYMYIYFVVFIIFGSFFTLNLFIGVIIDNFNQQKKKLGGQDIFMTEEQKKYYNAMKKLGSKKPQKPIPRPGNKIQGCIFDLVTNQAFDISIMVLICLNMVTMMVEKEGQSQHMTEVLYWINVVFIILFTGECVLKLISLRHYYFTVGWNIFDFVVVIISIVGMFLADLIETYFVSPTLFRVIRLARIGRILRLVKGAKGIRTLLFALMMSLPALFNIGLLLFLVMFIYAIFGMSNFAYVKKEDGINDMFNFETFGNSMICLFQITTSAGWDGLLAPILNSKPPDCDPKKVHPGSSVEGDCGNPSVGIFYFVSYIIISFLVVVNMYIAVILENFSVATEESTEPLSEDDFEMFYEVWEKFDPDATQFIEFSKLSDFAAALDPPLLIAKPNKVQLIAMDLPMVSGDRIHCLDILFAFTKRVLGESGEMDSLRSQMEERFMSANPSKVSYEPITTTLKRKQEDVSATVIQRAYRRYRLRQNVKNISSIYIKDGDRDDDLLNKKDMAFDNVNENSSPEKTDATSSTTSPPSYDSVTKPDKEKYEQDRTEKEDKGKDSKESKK
pIC50: −log10 of the molar value.
observable: pIC50

mol=C[C@H](c1ccccc1)n1ncc2cc(S(=O)(=O)Nc3ncns3)c(F)cc21 numericresult=6.39
mol=O=S(=O)(Nc1cccc(F)n1)c1cc2cnn(Cc3cccc4c3CNC4)c2cc1F numericresult=6.08
mol=O=S(=O)(Nc1ncns1)c1ccc2c(cnn2Cc2ccc(Cl)cc2C2=CCNCC2)c1 numericresult=5.28

* * *

# Ratio 1.5:1.7 = Nav 1.5 potency (nM)/Nav1.7 potency (nM) per entry
biological target: human Nav1.5 channels stably expressed in HEK 293 cells (Homo sapiens, UniProt Q14524); construct: expressed in transfected cells; host or cells: HEK 293; experiment: PatchXpress 7000 automated patch-clamp, inactivated state block; assay type: cell-based; conditions: PatchXpress technique
Sequence (Q14524 whole entry): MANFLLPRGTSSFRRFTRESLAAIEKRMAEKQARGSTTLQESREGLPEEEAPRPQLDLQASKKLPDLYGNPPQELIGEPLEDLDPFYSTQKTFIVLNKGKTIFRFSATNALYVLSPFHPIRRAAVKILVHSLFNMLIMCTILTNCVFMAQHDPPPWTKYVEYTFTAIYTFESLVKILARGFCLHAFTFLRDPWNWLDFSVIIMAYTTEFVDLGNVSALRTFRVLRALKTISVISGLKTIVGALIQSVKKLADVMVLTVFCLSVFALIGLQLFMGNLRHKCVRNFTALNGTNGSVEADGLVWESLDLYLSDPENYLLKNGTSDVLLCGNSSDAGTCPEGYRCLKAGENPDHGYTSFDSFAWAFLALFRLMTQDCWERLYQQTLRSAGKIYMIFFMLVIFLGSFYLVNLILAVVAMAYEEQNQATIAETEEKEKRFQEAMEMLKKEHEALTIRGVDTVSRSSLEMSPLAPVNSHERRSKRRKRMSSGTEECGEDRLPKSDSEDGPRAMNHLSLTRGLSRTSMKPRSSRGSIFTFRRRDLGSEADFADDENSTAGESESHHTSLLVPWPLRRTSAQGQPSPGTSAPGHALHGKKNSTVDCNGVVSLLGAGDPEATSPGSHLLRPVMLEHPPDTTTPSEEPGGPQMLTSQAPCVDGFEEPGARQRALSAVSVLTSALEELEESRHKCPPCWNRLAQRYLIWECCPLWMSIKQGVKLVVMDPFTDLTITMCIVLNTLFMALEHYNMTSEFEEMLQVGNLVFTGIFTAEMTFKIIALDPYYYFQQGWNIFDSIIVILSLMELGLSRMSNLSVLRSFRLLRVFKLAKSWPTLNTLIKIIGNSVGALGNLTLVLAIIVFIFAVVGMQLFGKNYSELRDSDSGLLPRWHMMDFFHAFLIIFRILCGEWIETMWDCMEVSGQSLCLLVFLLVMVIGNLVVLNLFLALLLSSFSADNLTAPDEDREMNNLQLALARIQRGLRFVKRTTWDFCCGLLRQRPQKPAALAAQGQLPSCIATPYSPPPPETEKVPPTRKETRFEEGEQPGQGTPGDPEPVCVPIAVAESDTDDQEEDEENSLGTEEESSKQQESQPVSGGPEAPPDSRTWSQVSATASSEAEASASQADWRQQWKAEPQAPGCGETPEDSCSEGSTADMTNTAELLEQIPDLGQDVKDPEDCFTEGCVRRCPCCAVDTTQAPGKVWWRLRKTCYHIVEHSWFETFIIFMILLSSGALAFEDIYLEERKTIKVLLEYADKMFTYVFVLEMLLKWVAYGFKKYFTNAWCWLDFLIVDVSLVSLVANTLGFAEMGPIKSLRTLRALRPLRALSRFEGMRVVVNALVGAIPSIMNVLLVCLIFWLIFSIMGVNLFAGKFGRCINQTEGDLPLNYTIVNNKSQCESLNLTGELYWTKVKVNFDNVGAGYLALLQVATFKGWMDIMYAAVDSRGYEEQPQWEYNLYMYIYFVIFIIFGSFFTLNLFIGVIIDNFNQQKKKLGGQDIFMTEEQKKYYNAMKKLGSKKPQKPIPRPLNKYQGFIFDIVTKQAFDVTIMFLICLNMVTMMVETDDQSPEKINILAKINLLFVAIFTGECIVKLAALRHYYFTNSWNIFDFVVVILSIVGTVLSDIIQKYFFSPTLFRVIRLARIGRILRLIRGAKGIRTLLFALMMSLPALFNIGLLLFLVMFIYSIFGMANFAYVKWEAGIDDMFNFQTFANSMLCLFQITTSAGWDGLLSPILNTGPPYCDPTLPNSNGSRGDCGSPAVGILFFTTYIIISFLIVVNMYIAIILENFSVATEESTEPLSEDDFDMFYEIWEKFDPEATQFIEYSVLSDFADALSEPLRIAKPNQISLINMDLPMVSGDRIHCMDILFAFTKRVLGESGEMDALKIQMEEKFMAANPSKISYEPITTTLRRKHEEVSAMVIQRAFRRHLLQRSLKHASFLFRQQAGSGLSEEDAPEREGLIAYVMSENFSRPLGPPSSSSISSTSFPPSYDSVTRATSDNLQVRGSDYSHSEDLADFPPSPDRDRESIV
observable: Ratio 1.5:1.7 = Nav 1.5 potency (nM)/Nav1.7 potency (nM)

compound=O=S(=O)(Nc1ncns1)c1ccc2c(cnn2Cc2ccccc2-c2cccc3c2CCNC3)c1 result="> 10"
compound=O=S(=O)(Nc1ncns1)c1ccc2c(cnn2Cc2ccc(Cl)cc2-c2cccc3c2CCNC3)c1 result=10
compound=O=S(=O)(Nc1ncns1)c1ccc2c(cnn2Cc2ccccc2C2=CCNCCC2)c1 result="> 7"
compound=O=S(=O)(Nc1cccc(F)n1)c1cc2cnn(Cc3cccc4c3CNCC4)c2cc1F result=64
compound="Cc1cc2c(cnn2Cc2cccc3c2CC(N)CC3)cc1S(=O)(=O)Nc1cccc(F)n1 (stereo not drawn)" result=171
compound=C[C@H](c1cccc2c1CNCC2)n1cc2cc(S(=O)(=O)Nc3ncc(Cl)s3)c(F)cc2n1 result=152

* * *

target: human Nav1.5 channels stably expressed in HEK 293 cells (Homo sapiens); construct: expressed in transfected cells; host or cells: HEK 293; assay: PatchXpress 7000 automated patch-clamp, inactivated state block; type: cell-based; settings: PatchXpress technique
# Ratio 1.5:1.7 = Nav 1.5 potency (nM)/Nav1.7 potency (nM) per entry
observable: Ratio 1.5:1.7 = Nav 1.5 potency (nM)/Nav1.7 potency (nM)

compound=C[C@H](c1ccccc1C1CNC1)n1ncc2cc(S(=O)(=O)Nc3cccc(F)n3)c(F)cc21 numericresult=11
compound=O=S(=O)(Nc1ncns1)c1cc2cnn(Cc3ccccc3-c3cccc4c3CCNC4)c2cc1F numericresult=38
compound=C[C@H](c1ccccc1CCCN)n1ncc2cc(S(=O)(=O)Nc3cccc(F)n3)c(F)cc21 numericresult=228
compound=O=S(=O)(Nc1cccc(F)n1)c1cc2cnn(Cc3ccccc3I)c2cc1F numericresult=7
compound=O=S(=O)(Nc1ncns1)c1ccc2c(cnn2Cc2ccc(Cl)cc2C2=CCNCC2)c1 numericresult=6
compound=C[C@H](c1ccccc1)n1ncc2cc(S(=O)(=O)Nc3ncns3)c(F)cc21 numericresult=65
compound="NC1CCc2cccc(Cn3ncc4cc(S(=O)(=O)Nc5ncc(Cl)s5)c(F)cc43)c2C1 (stereo not shown)" numericresult=1193
compound=C[C@@H](c1ccccc1)n1ncc2cc(S(=O)(=O)Nc3ncns3)c(F)cc21 numericresult=32
compound=C[C@H](c1cccc2c1CNCC2)n1ncc2cc(S(=O)(=O)Nc3nccs3)c(F)cc21 numericresult=870
compound=C[C@H](c1ccccc1C#CCN)n1ncc2cc(S(=O)(=O)Nc3cccc(F)n3)c(F)cc21 numericresult=41
compound=C[C@H](c1ccccc1C1=CCNCC1)n1ncc2cc(S(=O)(=O)Nc3cccc(F)n3)c(F)cc21 numericresult=5
compound=C[C@H](c1cccc2c1CNCC2)n1ncc2cc(S(=O)(=O)Nc3cccc(F)n3)c(F)cc21 numericresult=64
compound=NCC#Cc1ccccc1Cn1ncc2cc(S(=O)(=O)Nc3cccc(F)n3)c(F)cc21 numericresult=10
compound=C[C@H](c1ccccc1C#C[C@@H]1CCCC[C@@H]1N)n1ncc2cc(S(=O)(=O)Nc3cccc(F)n3)c(F)cc21 numericresult=15
compound=Cc1cc2c(cnn2[C@H](C)c2cccc3c2CNCC3)cc1S(=O)(=O)Nc1cccc(F)n1 numericresult=457
compound=NCCCc1ccccc1Cn1ncc2cc(S(=O)(=O)Nc3nccs3)c(F)cc21 numericresult=48
compound="NCC(F)c1ccccc1Cn1ncc2cc(S(=O)(=O)Nc3cccc(F)n3)c(F)cc21 (stereo not shown)" numericresult=162
compound=C[C@H](c1ccccc1C#C[C@H]1CCCC[C@H]1N)n1ncc2cc(S(=O)(=O)Nc3cccc(F)n3)c(F)cc21 numericresult=17
compound=O=S(=O)(Nc1ncc(Cl)s1)c1cc2cnn(Cc3cccc4c3CNCC4)c2cc1F numericresult=636
